Values compiled from patent US20230059489A1.

# ASSAYED_SYSTEM: human FLT3 (hFLT3) (human) (UniProt P36888)
# Sequence (P36888 27-543 limits assumed): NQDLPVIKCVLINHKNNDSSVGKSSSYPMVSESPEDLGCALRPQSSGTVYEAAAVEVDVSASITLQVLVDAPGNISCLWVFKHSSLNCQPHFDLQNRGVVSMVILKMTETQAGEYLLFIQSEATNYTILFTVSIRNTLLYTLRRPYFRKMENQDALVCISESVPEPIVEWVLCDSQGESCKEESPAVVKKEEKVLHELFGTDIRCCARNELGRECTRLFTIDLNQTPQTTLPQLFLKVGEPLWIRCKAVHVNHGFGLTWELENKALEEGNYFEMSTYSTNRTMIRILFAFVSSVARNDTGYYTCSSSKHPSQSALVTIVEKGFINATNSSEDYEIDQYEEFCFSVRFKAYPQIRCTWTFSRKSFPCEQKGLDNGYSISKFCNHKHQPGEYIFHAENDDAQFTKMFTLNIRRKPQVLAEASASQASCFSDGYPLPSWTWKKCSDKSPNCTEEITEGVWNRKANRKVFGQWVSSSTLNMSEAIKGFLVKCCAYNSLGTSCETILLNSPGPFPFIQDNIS
# EXPERIMENT: SPR, Table 6, scFv format; set-up and antigen species not described
Below, each entry is listed alongside its reported Kd.
Answer with a number only, understood to be in nM.

{"BINDER": "P4H11 (scFv format) (scFv, part only; not given: linker, domain order, tags, V domains shown, not shown: another chain or arm of the molecule; small tags and cut ends) VH: EVQLLESGGGLVQPGGSLRLSCAASGFTFSSYAMNWVRQAPGKGLEWVSSISGGGRSTYYADSVKGRFTISRDNSKNTLYLQMNSLRAEDTAVYYCARDLSPSDVGWGYGFDIWGQGTLVTVSS VL: EIVLTQSPGTLSLSPGERATLSCRASQSVSNTYLAWYQQKPGQAPRLLIYDTSSRATGIPDRFSGSGSGTDFTLTISRLEPEDFAVYYCQQYGSSLTFGQGTKVEIK", "MEASURE_UNIT": "nM", "Kd": 58.3}

Next binder, Kd to be filled in.
Note to self: Kd recorded for P3E10 (scFv format) (scFv, part only; not given: linker, domain order, tags, V domains shown, not shown: another chain or arm of the molecule; small tags and cut ends) VH: QVQLVQSGAEVKKPGSSVKVSCKASGGTFSSYAIQWVRQAPGQGLEWMGGIVGSWGLANYAQKFQGRVTITTDKSTSTAYMELSSLRSEDTAVYYCATSAFGELASWGQGTLVTVSS VL: EIVLTQSPGTLSLSPGERATLSCRASQSVPSSQLAWYQQKPGQAPRLLIYDASSRATGIPDRFSGSGSGTDFTLTISRLEPEDFAVYYCQQYGSSPLTFGQGTKVEIK was 65.1
